As shown below, each of these sequences has a reported shrunken log2 fold change value.
# Test system: Escherichia coli TOP10;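 also: peptides expressed intracellularly from a pBAD plasmid library in pooled LB shake-flask culture, induced with 0.3% L-arabinose, DNA abundance read by NGS, three biological replicates, DESeq2 with apeglm shrinkage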
# test.protocol: shrunken log2 fold change of peptide-encoding DNA abundance (4.5 h post-induction vs induction); higher = less antimicrobial activity (less host growth inhibition)
# applied.conditions: time post-induction: 4.5 h; library: site-saturation at positions 5, 18, 19, 20
Just the number, please.

Below are worked cases with known answers.
RRIRQRPPRLPRPRPRPWGPPRP | 0.0893
RRIRARPPRLPRPRPRPISFPRP | 0.323
RRIRPRPPRLPRPRPRPEAFPRP | -0.0543
RRIRKRPPRLPRPRPRPSWIPRP | -0.487
RRIRWRPPRLPRPRPRPMREPRP | 1.09

The sequence listed as `RRIRYRPPRLPRPRPRPITFPRP` shows shrunken log2 fold change equal to -0.864

The sequence listed as `RRIRMRPPRLPRPRPRPDPHPRP` shows shrunken log2 fold change equal to 0.0256
